- SYSTEM UNDER TEST: T1, Human CD3eg linker (human)
- T1 construct: CD3 epsilon and gamma subunits joined by a 29-mer linker, C-terminal Flag-tag (in the entry); also called recombinant human CD3
- T1 chain: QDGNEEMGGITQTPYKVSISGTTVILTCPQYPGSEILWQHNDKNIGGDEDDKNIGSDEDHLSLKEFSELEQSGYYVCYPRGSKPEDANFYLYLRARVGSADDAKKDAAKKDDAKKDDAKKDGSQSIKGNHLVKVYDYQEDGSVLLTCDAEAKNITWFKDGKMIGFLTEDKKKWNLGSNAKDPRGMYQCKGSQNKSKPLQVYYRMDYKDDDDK
- METHOD: SPR Biacore T200, 25 C, Ab captured
MEASURED QUANTITY: pKd
To interpret pKd, take it as minus log10 of a concentration measured in moles per litre.

The examples below pair each entry with its known result.
// query Requested field: pKd. Item: H1573L0581 (antibody, V domains shown) VH: QVQLVESGGGLVQPGRSLRLSCAASGFKFSNVWFHWVRQAPGKGLEWVAQIKDYYNAYAAYYAPSVKGRFTISRDDSKNSIYLQMNSLKTEDTAVYYCHYVHYASASTLLPAFGVDAWGQGTTVTVSS VL: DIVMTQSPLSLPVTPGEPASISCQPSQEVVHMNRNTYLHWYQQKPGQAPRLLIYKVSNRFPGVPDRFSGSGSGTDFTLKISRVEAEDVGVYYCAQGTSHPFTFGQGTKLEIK
// result 6.81

// query Requested field: pKd. Item: H0883 (antibody, V domains shown, also called H0883 (CD3); H883) VH: QVQLVESGGGLVQPGRSLRLSCAASGFTFSNAWMHWVRQAPGKGLEWVAQIKDKGNAYAAYYAPSVKGRFTISRDDSKNSIYLQMNSLKTEDTAVYYCRYVHYASASTLLPAFGVDAWGQGTTVTVSS VL: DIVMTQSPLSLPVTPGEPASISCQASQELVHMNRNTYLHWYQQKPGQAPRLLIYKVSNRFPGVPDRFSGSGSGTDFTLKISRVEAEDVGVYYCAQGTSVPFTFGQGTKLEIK
// result 6.96

Proceed to the following item.
// query Requested field: pKd. Item: H1579L0581 (antibody, V domains shown) VH: QVQLVESGGGLVQPGRSLRLSCAASGFKFSHVWFHWVRQAPGKGLEWVAQIKDKYNAYAAYYAPSVKGRFTISRDDSKNSIYLQMNSLKTEDTAVYYCHYVHYASASTLLPAFGVDAWGQGTTVTVSS VL: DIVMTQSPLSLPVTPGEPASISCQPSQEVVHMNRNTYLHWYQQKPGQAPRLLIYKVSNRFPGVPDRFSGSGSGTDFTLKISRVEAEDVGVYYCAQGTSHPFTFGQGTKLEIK
// result 6.56

Source: patent US20220112296A1
